Kindly state drug sensitivity score for each of the entries shown.
# Test system: Vero E6
# PROTOCOL_TEXT: drug sensitivity score (DSS) for viability; higher = more toxic; extreme values may be limits of the assay
# PROTOCOL_CONDITIONS: 72 h
Give bare numbers.

Recorded results for 3 compounds are shown here.
| COMPOUND | drug sensitivity score |
| --- | --- |
| O=C1CCc2cc(OCCCCc3nnnn3C3CCCCC3)ccc2N1 | 0 |
| CCOC(=O)c1ncn2c1CN(C)C(=O)c1cc(N=[N+]=[N-])ccc1-2 | 0 |
| CCC(=O)O[C@@H]1CC(=O)O[C@H](C)C/C=C/C=C/[C@H](O)[C@H](C)C[C@H](CC=O)[C@H](O[C@@H]2O[C@H](C)[C@@H](O[C@H]3C[C@@](C)(O)[C@@H](OC(=O)CC)[C@H](C)O3)[C@H](N(C)C)[C@H]2O)[C@H]1OC | 0 |

List drug sensitivity score for every entry below, keeping the order given.
1. CCn1cc(C(=O)O)c(=O)c2cc(F)c(N3CCNCC3)cc21
2. CCN1CCN(Cc2ccc(C(=O)Nc3ccc(C)c(Oc4ccc5c(c4)CC(=O)N5)c3)cc2C(F)(F)F)CC1
3. Cc1c(Cn2c(C)nc3c(C(=O)O)cc(N4CCOCC4)cc32)cccc1C(F)(F)F
4. CC1=C(CC(=O)O)c2cc(F)ccc2/C1=C\c1ccc(S(C)(=O)=O)cc1
5. COc1cc2c(Oc3ccc(NC(=O)C4(C(=O)Nc5ccc(F)cc5)CC4)cc3F)ccnc2cc1OCCCN1CCOCC1
6. Nc1ccc([As](=O)(O)O)cc1

# output
1. 0
2. 1.1
3. 3.6
4. 0
5. 9.4
6. 0
